test.description: Ratio of drug level in brain to blood in wild type NMRI mouse at 2 mg free base/kg, iv by UPLC-MS/MS method
Type: ADME, organism-based
measurement.parameters: brain and blood, read-out: BBR
value.type: Kp

{"record.smiles": "Cc1nn(C)c(C)c1N(C)S(=O)(=O)c1c(Cl)cc(Br)cc1Cl", "comparison.symbol": "=", "test.result": 3.7}
{"record.smiles": "Cc1nn(C)c(C)c1NS(=O)(=O)c1c(Cl)cc(Br)cc1Cl", "comparison.symbol": "<", "test.result": 0.1}

###

The entries below are paired with their reported IC50.
test.description: Inhibition of Trypanosoma brucei N-myristoyltransferase assessed as transfer of [3H]-myristic acid to a biotinylated substrate peptide (GCGGSKVKPQPPQAK(biotin)-amide by scintillation proximity assay

{"record.smiles": "Cc1nn(C)c(C)c1N(C(F)F)S(=O)(=O)c1c(Cl)cc(CCCN2CCN3CCC[C@@H]3C2)cc1Cl", "unit.of.measurement": "nM", "IC50": 2}
{"record.smiles": "Cc1nn(C)c(C)c1NS(=O)(=O)c1ccc(CCCC2CCN(C)CC2)cc1", "unit.of.measurement": "nM", "IC50": 7}
{"record.smiles": "Cc1nn(C)c(C)c1N(C(F)F)S(=O)(=O)c1c(Cl)cc(CCCOC[C@H]2CCCCN2C)cc1Cl", "unit.of.measurement": "nM", "IC50": 2}
{"record.smiles": "Cc1nn(C)c(C)c1NS(=O)(=O)c1c(Cl)cc(Br)cc1Cl", "unit.of.measurement": "nM", "IC50": 500}
{"record.smiles": "Cc1nn(C)c(C)c1N(C(F)F)S(=O)(=O)c1c(Cl)cc(CCCOC[C@@H]2CCCN2C)cc1Cl", "unit.of.measurement": "nM", "IC50": 2}
{"record.smiles": "Cc1nn(C)c(CC(C)C)c1NS(=O)(=O)c1c(Cl)cc(-c2ccnc(N3CCNCC3)c2)cc1Cl", "unit.of.measurement": "nM", "IC50": 6}
{"record.smiles": "Cc1nn(C)c(C)c1NS(=O)(=O)c1c(Cl)cc(CCCCC2CCN(C)CC2)cc1Cl", "unit.of.measurement": "nM", "IC50": 1}
{"record.smiles": "Cc1nn(C)c(C)c1N(C)S(=O)(=O)c1c(Cl)cc(Br)cc1Cl", "unit.of.measurement": "nM", "IC50": 330}
{"record.smiles": "Cc1nn(C)c(C)c1NS(=O)(=O)c1ccc(CCCCC2CCN(C)CC2)cc1", "unit.of.measurement": "nM", "IC50": 3}

###

Tested on: MRC5
test.description: cells
measurement.parameters: Homo sapiens, MRC5, 69 h
Description: Antiproliferative activity against human MRC5 cells assessed as reduction cell viability incubated for 69 hrs by rezasurin dye based assay
pEC50: −log10 of the molar value.
# binarize pEC50: threshold 6 inclusive, high side 1 (yes), low side 0 (no)

{"record.smiles": "Cc1nn(C)c(C)c1NS(=O)(=O)c1ccc(CCCCC2CCN(C)CC2)cc1", "target.desc": "MRC5", "group": "0 (no)"}
{"record.smiles": "Cc1nn(C)cc1NS(=O)(=O)c1c(Cl)cc(-c2ccnc(N3CCNCC3)c2)cc1Cl", "target.desc": "MRC5", "group": "1 (yes)"}
{"record.smiles": "Cc1nn(C)c(C)c1N(C(F)F)S(=O)(=O)c1c(Cl)cc(CCCOC[C@H]2CCCCN2C)cc1Cl", "target.desc": "MRC5", "group": "0 (no)"}
{"record.smiles": "Cc1nn(C)c(C)c1N(C(F)F)S(=O)(=O)c1c(Cl)cc(CCCOC[C@@H]2CCCCN2C)cc1Cl", "target.desc": "MRC5", "group": "0 (no)"}
{"record.smiles": "Cc1nn(C)c(C)c1NS(=O)(=O)c1c(Cl)cc(Br)cc1Cl", "target.desc": "MRC5", "group": "0 (no)"}
{"record.smiles": "Cc1nn(C)c(C)c1NS(=O)(=O)c1c(Cl)cc(C#Cc2cncn2C)cc1Cl", "target.desc": "MRC5", "group": "0 (no)"}
{"record.smiles": "Cc1nn(C)c(C)c1NS(=O)(=O)c1ccc(CCCC2CCN(C)CC2)cc1", "target.desc": "MRC5", "group": "0 (no)"}
{"record.smiles": "Cn1cc(NS(=O)(=O)c2c(Cl)cc(-c3ccnc(N4CCNCC4)c3)cc2Cl)cn1", "target.desc": "MRC5", "group": "0 (no)"}
{"record.smiles": "Cc1nn(C)c(C)c1N(C(F)F)S(=O)(=O)c1c(Cl)cc(CCCOC[C@H]2CCCN2C)cc1Cl", "target.desc": "MRC5", "group": "0 (no)"}
{"record.smiles": "Cc1nn(C)c(C)c1N(C(F)F)S(=O)(=O)c1c(Cl)cc(CCCOC[C@@H]2CCCN2C)cc1Cl", "target.desc": "MRC5", "group": "0 (no)"}
{"record.smiles": "Cc1nn(C)c(C)c1NS(=O)(=O)c1ccc(CCCCC2CCNCC2)cc1", "target.desc": "MRC5", "group": "0 (no)"}
{"record.smiles": "Cc1nn(C)c(C)c1NS(=O)(=O)c1c(Cl)cc(CCCCC2CCN(C)CC2)cc1Cl", "target.desc": "MRC5", "group": "1 (yes)"}
{"record.smiles": "Cc1nn(C)c(C)c1NS(=O)(=O)c1c(Cl)cc(C#CCN2CCN(C)CC2)cc1Cl", "target.desc": "MRC5", "group": "0 (no)"}
{"record.smiles": "Cc1nn(C)c(C)c1NS(=O)(=O)c1ccc(CCCC2CCNCC2)cc1", "target.desc": "MRC5", "group": "0 (no)"}
{"record.smiles": "Cc1nn(C)c(C)c1N(C)S(=O)(=O)c1c(Cl)cc(Br)cc1Cl", "target.desc": "MRC5", "group": "0 (no)"}
{"record.smiles": "Cc1nn(C)c(CC(C)C)c1NS(=O)(=O)c1c(Cl)cc(-c2ccnc(N3CCNCC3)c2)cc1Cl", "target.desc": "MRC5", "group": "1 (yes)"}
{"record.smiles": "Cc1nn(C)c(C)c1NS(=O)(=O)c1c(Cl)cc(CCCCC2CCNCC2)cc1Cl", "target.desc": "MRC5", "group": "1 (yes)"}

###

test.description: Inhibition of Trypanosoma brucei N-myristoyltransferase assessed as transfer of [3H]-myristic acid to a biotinylated substrate peptide (GCGGSKVKPQPPQAK(biotin)-amide by scintillation proximity assay
Parameter: IC50. Scope: all listed entries.

{"record.smiles": "Cc1nn(C)c(C)c1N(C(F)F)S(=O)(=O)c1c(Cl)cc(CCCOC[C@H]2CCCN2C)cc1Cl", "IC50 (nM)": 2}
{"record.smiles": "Cc1nn(C)cc1NS(=O)(=O)c1c(Cl)cc(-c2ccnc(N3CCNCC3)c2)cc1Cl", "IC50 (nM)": 4}
{"record.smiles": "Cc1nn(C)c(C)c1N(C(F)F)S(=O)(=O)c1c(Cl)cc(CCCOC[C@@H]2CCCCN2C)cc1Cl", "IC50 (nM)": 2}
{"record.smiles": "Cc1nn(C)c(C)c1NS(=O)(=O)c1c(Cl)cc(C#CCN2CCN(C)CC2)cc1Cl", "IC50 (nM)": 160}
{"record.smiles": "Cc1nn(C)c(C)c1NS(=O)(=O)c1ccc(CCCN2CCN(C)CC2)cc1", "IC50 (nM)": 120}
{"record.smiles": "Cc1nn(C)c(C)c1NS(=O)(=O)c1c(Cl)cc(CCCN2CCN(C)CC2)cc1Cl", "IC50 (nM)": 3}
{"record.smiles": "Cc1nn(C)c(C)c1NS(=O)(=O)c1c(Cl)cc(CCCC2CCN(C)CC2)cc1Cl", "IC50 (nM)": 2}
{"record.smiles": "Cc1nn(C)c(C)c1NS(=O)(=O)c1c(Cl)cc(C#Cc2cncn2C)cc1Cl", "IC50 (nM)": 660}
{"record.smiles": "Cc1nn(C)c(C)c1NS(=O)(=O)c1ccc(CCCCC2CCNCC2)cc1", "IC50 (nM)": 6}

###

Kp values, listed per item
test.description: Ratio of drug level in brain to blood in mdr1a-deficient mouse
Assay type: ADME, organism-based
measurement.parameters: brain and blood, read-out: BBR

{"record.smiles": "Cc1nn(C)c(C)c1NS(=O)(=O)c1c(Cl)cc(Br)cc1Cl", "comparison.symbol": "<", "Kp": 0.1}
{"record.smiles": "Cc1nn(C)c(C)c1N(C)S(=O)(=O)c1c(Cl)cc(Br)cc1Cl", "comparison.symbol": "=", "Kp": 3.7}

###

test.description: Inhibition of Trypanosoma brucei N-myristoyltransferase assessed as transfer of [3H]-myristic acid to a biotinylated substrate peptide (GCGGSKVKPQPPQAK(biotin)-amide by scintillation proximity assay
Readings of IC50 for the listed compounds

{"record.smiles": "Cc1nn(C)c(C)c1NS(=O)(=O)c1c(Cl)cc(CCCC2CCNCC2)cc1Cl", "unit.of.measurement": "nM", "IC50": 2}
{"record.smiles": "Cc1nn(C)c(C)c1NS(=O)(=O)c1ccc(CCCC2CCNCC2)cc1", "unit.of.measurement": "nM", "IC50": 9}
{"record.smiles": "Cc1nn(C)c(C)c1NS(=O)(=O)c1c(Cl)cc(CCCCC2CCNCC2)cc1Cl", "unit.of.measurement": "nM", "IC50": 3}

All values here come from ChEMBL document CHEMBL3352323.
